Ref: patent US7244727B2

measurement name: melting point

// known answers, use as guide
{"compound": "CN(C[C@H]1CC[C@H](c2ccc(C3=Nc4c(N)ncnc4OC3(C)C)cc2)CC1)C(=O)CO [Example 2-243]", "measurement name": "melting point", "measured value": "208 to 210 °C"}
{"compound": "Cc1nc(N)c2c(n1)OC(C)(C)C(c1ccc([C@H]3CC[C@H](C[S+]([O-])CC(=O)O)CC3)cc1)=N2 (some centres unmarked) [Example 2-262]", "measurement name": "melting point", "measured value": "> 166 °C"}
{"compound": "CC1(C)Oc2ncnc(N)c2N=C1c1ccc(N2CCC(C(=O)O)CC2)cc1 [Example 4-4]", "measurement name": "melting point", "measured value": "> 240 °C"}
{"compound": "CCCCc1ccc(C2=Nc3c(N)ncnc3OC2(C)C)cc1", "measurement name": "melting point", "measured value": "157 to 160 °C"}

// below: melting point requested for another compound
Problem: Could you share which melting point value was measured for Cc1ccc(S(=O)(=O)NCC[C@H]2CC[C@H](c3ccc(C4=Nc5c(N)ncnc5OC4(C)C)cc3)CC2)cc1 [Example 2-175] ?
Solution: 230 to 231 °C

====

molecules and their reported melting point

// known answers, use as guide
{"molecule": "CN(C)c1nc(N)c2c(n1)OCC(c1ccc(Br)cc1)=N2 [Example 1-30]", "measurement name": "melting point", "measured value": "> 220 °C"}
{"molecule": "CC(C)(O)C(=O)N1CCN(C[C@H]2CC[C@H](c3ccc(C4=Nc5c(N)ncnc5OC4(C)C)cc3)CC2)CC1 [Example 2-248]", "measurement name": "melting point", "measured value": "207 to 208 °C"}
{"molecule": "Cc1ncc(C[C@H]2CC[C@H](c3ccc(C4=Nc5c(N)ncnc5OC4(C)C)cc3)CC2)s1 [Example 2-118]", "measurement name": "melting point", "measured value": "215 to 216 °C"}
{"molecule": "CN(C)c1ccc(-c2ccc(C3=Nc4c(N)ncnc4OC3(C)C)cc2)cc1 [Example 2-30]", "measurement name": "melting point", "measured value": "210 to 211 °C"}
{"molecule": "CC1(C)Oc2ncnc(N)c2N=C1c1ccc([C@H]2CC[C@H](Cc3nc4cc(F)ccc4[nH]3)CC2)cc1 [Example 2-124]", "measurement name": "melting point", "measured value": "> 230 °C"}

Problem: Could you share which melting point value was measured for Cc1nc(N)c2c(n1)OC(C)(C)C(c1ccc([C@H]3CC[C@H](CNC(=O)C(O)CCO)CC3)cc1)=N2 (stereo partly shown) [Example 2-164] ?
Solution: 222 to 225 °C

Problem: Could you share which melting point value was measured for Cc1nc(N)c2c(n1)OC(C)(C)C(c1ccc([C@H]3CC[C@H](Cc4cc(O)n(C)n4)CC3)cc1)=N2 [Example 2-165] ?
Solution: > 250 °C

Problem: Could you share which melting point value was measured for CC1(C)Oc2ncnc(N)c2N=C1c1ccc([C@H]2CC[C@H](CCNC(=O)[C@@H]3CCCN3)CC2)cc1 [Example 2-182] ?
Solution: 167 to 169 °C

Problem: Could you share which melting point value was measured for Cc1nc(N)c2c(n1)OC(C)(C)C(c1ccc(C3CCCCC3)cc1)=N2 [Example 2-26] ?
Solution: 226 to 227 °C

Problem: Could you share which melting point value was measured for Nc1ncnc2c1N=C(C1CCCCC1)CO2 [Example 1-22] ?
Solution: 142 °C
